I'd appreciate it if you could label each record using glass transition temperature and these ranges: lower level (below 70 °C), middle level (70 °C to below 200 °C), upper level (200 °C or more)

Please let me know in which category the item *c1ccc(-c2nc3ccc(S(=O)(=O)c4ccc5nc(*)c(-c6ccccc6)nc5c4)cc3nc2-c2ccccc2)cc1 (repeat unit) belongs.
upper level

Kindly state the category for this molecule: *CC(*)(CC(=O)OCCC)C(=O)OCCC (repeat unit)
lower level

Where would *OC(COC(=O)c1ccc(C(*)=O)cc1)COc1ccc(/N=N/c2ccc(C#N)cc2)cc1 (repeat unit) land among the classes by reported glass transition temperature?
middle level

Input *c1ccc2c(c1)C(=O)N(c1ccc(-c3ccc(N4C(=O)c5ccc(C(*)(C(F)(F)F)C(F)(F)F)cc5C4=O)cc3C(F)(F)F)c(C(F)(F)F)c1)C2=O (repeat unit) ; output its category
upper level

Hey, which category is */C=C/C1CC(*)C2C(=O)N(c3ccc(C)cc3)C(=O)C12 (repeat unit) in, do you know?
upper level

Would you mind sorting *c1cc(Br)c(-c2c(Br)cc(N3C(=O)c4ccc(-c5ccc6c(c5)C(=O)N(*)C6=O)cc4C3=O)cc2C(=O)OCCCCCCCCCCCC)c(C(=O)OCCCCCCCCCCCC)c1 (repeat unit) into the appropriate category?
middle level

// bin(item) where item = *c1ccc(Oc2ccc(Oc3ccc(-n4c(=O)c5cc6c(=O)n(*)c(=O)c6cc5c4=O)cc3)cc2C(C)(C)C)cc1 (repeat unit)
upper level

GET /class?item= *CCCCCCNC(=O)CCc1ccc(C(C)CC(=O)N*)cc1 (repeat unit)
middle level

Category of */C=C/c1ccc(N(C)CCOC(=O)Nc2ccc(C)c(NC(=O)OCCN(C)c3ccc(/C=C/C4=CC(=C(C#N)C#N)C=C(*)O4)s3)c2)s1 (repeat unit) :
middle level

// return the class label for *C(=O)Nc1ccc(Oc2cccc(Oc3ccc(NC(=O)c4ccc5c(c4)C(=O)N(c4ccc(Sc6ccc(Oc7ccc(Sc8ccc(N9C(=O)c%10ccc(*)cc%10C9=O)cc8)cc7)cc6)cc4)C5=O)cc3)c2)cc1 (repeat unit)
middle level

Bin this entry: *c1ccc([Si](c2ccccc2)(c2ccccc2)c2ccc(-c3nnc(*)o3)cc2)cc1 (repeat unit)
upper level

Into which category would you place *Oc1ccc(/N=N/c2ccc(Oc3ccc(C(C)(C)c4ccc(*)cc4)cc3)cc2)cc1 (repeat unit) ?
middle level

Sort *CCCCCCCC(*)C (repeat unit) into one of the categories.
lower level

Which class holds *Oc1ccc(NC(=O)c2ccc(S(=O)(=O)c3ccc(C(=O)Nc4ccc(Oc5ccc(C6(c7ccc(*)cc7)C7CC8CC(C7)CC6C8)cc5)cc4)cc3)cc2)cc1 (repeat unit) ?
upper level

Please report the category associated with *Oc1ccc(C(=O)OC(C)COC(C)COC(C)COC(=O)c2ccc(OC(=O)c3ccc(C(*)=O)cc3)cc2)cc1 (repeat unit) , nothing else.
lower level

// return the class label for *CCCS(=O)(=O)CCCS(=O)(=O)CCCOC(=O)c1ccccc1C(=O)O* (repeat unit)
lower level

Form: Item = *Oc1ccc(S(=O)(=O)c2ccc(OC(=O)c3ccc([Si](c4ccccc4)(c4ccccc4)c4ccc(C(*)=O)cc4)cc3)cc2)cc1 (repeat unit) ; Class = ?
upper level

For the record *Oc1ccc(-c2ccc(OC(=O)c3cccc(C(*)=O)c3)cc2)cc1 (repeat unit) , report the class its glass transition temperature corresponds to.
middle level

Looking at *c1ccc(Oc2ccc(N3C(=O)c4ccc(Oc5ccc6ccc(Oc7ccc8c(c7)C(=O)N(*)C8=O)cc6c5)cc4C3=O)cc2)cc1 (repeat unit) , which class would you pick?
upper level

Would you mind sorting *O[Si](C)(C)c1ccc([Si](C)(C)O[SiH](*)C)cc1 (repeat unit) into the appropriate category?
lower level

Kindly state the category for this molecule: *CC(*)C(=O)OCCc1ccccc1 (repeat unit)
lower level

Which bin should I file *Oc1ccc(C(C)(C)c2ccc(OC(*)=S)cc2)cc1 (repeat unit) under?
middle level

Exercise: read the entry *c1ccc(Oc2ccc(-c3ccc(Oc4ccc(N5C(=O)c6ccc(Oc7ccc(-c8ccc(Oc9ccc%10c(c9)C(=O)N(*)C%10=O)cc8)cc7)cc6C5=O)cc4)cc3)cc2)cc1 (repeat unit) and state which class it falls under.
upper level

# classify by glass transition temperature band: *CCCCCCN1C(=O)C(=O)N(*)C1=O (repeat unit)
lower level

Which of the defined bands does the recorded glass transition temperature of *CCCCCCCCN(C)c1ccc(C(=O)c2ccc(N(*)C)cc2)cc1 (repeat unit) sit within?
lower level

Please indicate the class for *Oc1ccc(S(=O)(=O)c2ccc(Oc3ccc(/C=C/c4ccc(*)cc4)cc3)cc2)cc1 (repeat unit) based on its glass transition temperature.
upper level

Exam item: assign *c1cccc(P(=O)(c2cccc(-n3c(=O)c4c(-c5ccccc5)c5c(=O)n(*)c(=O)c5c(-c5ccccc5)c4c3=O)c2)c2cc(C(F)(F)F)cc(C(F)(F)F)c2)c1 (repeat unit) to the correct category.
upper level

For *CC(*)C(=O)OCCCCCCC (repeat unit) , which glass transition temperature bin applies?
lower level

Tag the class for *c1ccc(Cc2ccc(N(c3ccc(C)cc3)c3ccc(-c4ccc(N(*)c5ccc(C)cc5)cc4)cc3)cc2)cc1 (repeat unit)
middle level
